method.description: in vitro
Format: cell-based
experimental.context: Chinese hamster, Cytotox. CHO-K1
Kindly supply the reported IC50 at 24 h values for the records listed here.

Task: Output measured IC50 at 24 h for this item: CN(C)c1cc(-c2ccc(CN3CCN(CCO)CC3)o2)c(O)c2c1C[C@H]1C[C@H]3[C@H](N(C)C)C(O)=C(C(N)=O)C(=O)[C@@]3(O)C(O)=C1C2=O
Output: > 111 µM

Task: Output measured IC50 at 24 h for this item: CN(C)CCNCc1ccc(-c2ccc(O)c3c2C[C@H]2C[C@H]4[C@H](N(C)C)C(O)=C(C(N)=O)C(=O)[C@@]4(O)C(O)=C2C3=O)o1
Output: > 142 µM

Task: Output measured IC50 at 24 h for this item: CN(C)[C@@H]1C(O)=C(C(N)=O)C(=O)[C@@]2(O)C(O)=C3C(=O)c4c(O)ccc(C(=O)CNCc5cccn5C)c4C[C@H]3C[C@@H]12
Output: > 41.4 µM

Task: Output measured IC50 at 24 h for this item: CC(C)OC(=O)c1cccc(-c2ccc(O)c3c2C[C@H]2C[C@H]4[C@H](N(C)C)C(O)=C(C(N)=O)C(=O)[C@@]4(O)C(O)=C2C3=O)c1
Output: 6.12 µM

Task: Output measured IC50 at 24 h for this item: CCCCNC(=O)c1cccc(-c2ccc(O)c3c2C[C@H]2C[C@H]4[C@H](N(C)C)C(O)=C(C(N)=O)C(=O)[C@@]4(O)C(O)=C2C3=O)c1
Output: > 15.2 µM

Task: Output measured IC50 at 24 h for this item: CN(C)[C@@H]1C(O)=C(C(N)=O)C(=O)[C@@]2(O)C(O)=C3C(=O)c4c(O)ccc(C(=O)CN5CCN(C6CCCCC6)CC5)c4C[C@H]3C[C@@H]12
Output: > 123 µM

* * *

method.description: Mammalian cytotoxicity assay (resazurin), COS-1 cells
Assay type: cell-based
experimental.context: African green monkey, read-out: Cytotox. COS-1
property: IC50 at 24 h

Task: Output measured IC50 at 24 h for this item: CN(C)c1cc(-c2cccc(C(N)=O)c2)c(O)c2c1C[C@H]1C[C@H]3[C@H](N(C)C)C(O)=C(C(N)=O)C(=O)[C@@]3(O)C(O)=C1C2=O
Output: > 45.3 µM

Task: Output measured IC50 at 24 h for this item: CN1CCN(C(=O)c2cccc(-c3ccc(O)c4c3C[C@H]3C[C@H]5[C@@H](N(C)C)C(O)=C(C(N)=O)C(=O)[C@@]5(O)C(O)=C3C4=O)c2)CC1
Output: > 131 µM

Task: Output measured IC50 at 24 h for this item: CN(C)CCCCN(C)Cc1cccc(-c2ccc(O)c3c2C[C@H]2C[C@H]4[C@H](N(C)C)C(O)=C(C(N)=O)C(=O)[C@@]4(O)C(O)=C2C3=O)c1
Output: > 132 µM

Task: Output measured IC50 at 24 h for this item: CN(C)[C@@H]1C(O)=C(C(N)=O)C(=O)[C@@]2(O)C(O)=C3C(=O)c4c(O)ccc(C(=O)CNCc5cccn5C)c4C[C@H]3C[C@@H]12
Output: > 41.4 µM

Task: Output measured IC50 at 24 h for this item: CN(C)CCCNC(=O)c1ccc(-c2ccc(O)c3c2C[C@H]2C[C@H]4[C@H](N(C)C)C(O)=C(C(N)=O)C(=O)[C@@]4(O)C(O)=C2C3=O)o1
Output: > 200 µM

Task: Output measured IC50 at 24 h for this item: CCN(CC)CCNC(=O)c1cccc(-c2ccc(O)c3c2C[C@H]2C[C@H]4[C@H](N(C)C)C(O)=C(C(N)=O)C(=O)[C@@]4(O)C(O)=C2C3=O)c1
Output: > 139 µM

Task: Output measured IC50 at 24 h for this item: COCCNC(=O)c1cccc(-c2ccc(O)c3c2C[C@H]2C[C@H]4[C@H](N(C)C)C(O)=C(C(N)=O)C(=O)[C@@]4(O)C(O)=C2C3=O)c1
Output: > 15.1 µM

Task: Output measured IC50 at 24 h for this item: CN(C)CCCNCc1cccc(-c2ccc(O)c3c2C[C@H]2C[C@H]4[C@H](N(C)C)C(O)=C(C(N)=O)C(=O)[C@@]4(O)C(O)=C2C3=O)c1
Output: > 137 µM

Task: Output measured IC50 at 24 h for this item: COCc1cccc(-c2ccc(O)c3c2C[C@H]2C[C@H]4[C@H](N(C)C)C(O)=C(C(N)=O)C(=O)[C@@]4(O)C(O)=C2C3=O)c1
Output: 10.4 µM

Task: Output measured IC50 at 24 h for this item: CN(C)CCCNC(=O)c1cccc(-c2ccc(O)c3c2C[C@H]2C[C@H]4[C@@H](N(C)C)C(O)=C(C(N)=O)C(=O)[C@@]4(O)C(O)=C2C3=O)c1
Output: > 123 µM

Task: Output measured IC50 at 24 h for this item: CN(Cc1cccnc1)Cc1cccc(-c2ccc(O)c3c2C[C@H]2C[C@H]4[C@H](N(C)C)C(O)=C(C(N)=O)C(=O)[C@@]4(O)C(O)=C2C3=O)c1
Output: > 12.3 µM
